# Assay Summary: Stability in liver microsomes
# Assay type: in vitro ADME
# Measurement Setup: 2 μM peptidomimetic, human liver microsomes, 37° C., 24 h
Non-standard residues stand in square brackets, D forms with d. Residues, ends and D or L forms follow the SMILES beside them. ξ: configuration not given here. ξBip(2'-Et-4'-OMe) = CCc1cc(OC)ccc1-c1ccc(CC(N)C(=O)O)cc1; ξNva(5-(3-Cl-Ph)) = NC(CCCc1cccc(Cl)c1)C(=O)O
Metric: % degradation of peptidomimetics in 24 h when incubated with liver microsomes

>  <Molecule>
CCc1cc(OC)ccc1-c1ccc(CC(NC(=O)[C@H](CC(=O)O)NC(=O)[C@H](CO)NC(=O)[C@@H](NC(=O)[C@H](Cc2ccccc2)NC(=O)[C@@H](NC(=O)CNC(=O)C(CCC#N)NC(=O)C(C)(C)NC(=O)[C@@H](N)Cc2c[nH]cn2)[C@@H](C)O)[C@@H](C)O)C(=O)NC(CCCc2cc(C)cc(C)c2)C(N)=O)cc1 (single isomer, unassigned)

>  <Obs Value>
33%

$$$$
>  <Molecule>
CCc1cc(OC)ccc1-c1ccc(CC(NC(=O)[C@H](CC(=O)O)NC(=O)[C@H](CO)NC(=O)[C@@H](NC(=O)[C@H](Cc2ccccc2)NC(=O)[C@@H](NC(=O)CNC(=O)C(CCC#N)NC(=O)C(C)(C)NC(=O)[C@@H](N)Cc2c[nH]cn2)[C@@H](C)O)[C@@H](C)O)C(=O)NC(CCCc2ccc(F)cc2C(F)(F)F)C(N)=O)cc1 (single isomer, unassigned)

>  <Obs Value>
100%

$$$$
>  <Molecule>
CCc1cc(OC)ccc1-c1ccc(CC(NC(=O)[C@H](CC(=O)O)NC(=O)[C@H](CO)NC(=O)[C@@H](NC(=O)C(C)(Cc2ccccc2F)NC(=O)[C@@H](NC(=O)CNC(=O)[C@H](CC(C(F)(F)F)C(F)(F)F)NC(=O)C(C)(C)NC(=O)[C@H](Cc2c[nH]cn2)NC(C)=O)[C@@H](C)O)[C@@H](C)O)C(=O)NC(CCCc2ccccc2)C(N)=O)cc1 (single isomer, unassigned)

>  <Obs Value>
100%

$$$$
>  <Molecule>
CCc1cc(OC)ccc1-c1ccc(CC(NC(=O)[C@H](CC(=O)O)NC(=O)[C@H](CO)NC(=O)[C@@H](NC(=O)[C@H](Cc2ccccc2)NC(=O)[C@@H](NC(=O)CNC(=O)C(CCC#N)NC(=O)C(C)(C)NC(=O)[C@@H](N)Cc2c[nH]cn2)[C@@H](C)O)[C@@H](C)O)C(=O)NC(CCCc2ccccc2)C(N)=O)cc1 (single isomer, unassigned)

>  <Obs Value>
32%

$$$$
>  <Molecule>
CCc1cc(OC)ccc1-c1ccc(CC(NC(=O)[C@H](CC(=O)O)NC(=O)[C@H](CO)NC(=O)[C@@H](NC(=O)[C@H](Cc2ccccc2)NC(=O)[C@@H](NC(=O)CNC(=O)[C@H](CCC(N)=O)NC(=O)[C@H](CO)NC(=O)[C@@H](N)Cc2c[nH]cn2)[C@@H](C)O)[C@@H](C)O)C(=O)NC(CCCc2cccc(Cl)c2)C(N)=O)cc1 (some centres unmarked) [compound 7] (H-HSQGTFTSD[ξBip(2'-Et-4'-OMe)][ξNva(5-(3-Cl-Ph))]-NH2)

>  <Obs Value>
77%

$$$$
